The reported measurements were obtained from PubChem BioAssay (NCATS).

- Run description: qHTS for Inhibitors of the Functional Ribonucleoprotein Complex (vRNP) of Lassa (LASV) Arenavirus: Viability assay - alamar blue signal for LASV Primary Screen (AID 1347083); also: nearly all actives have a fitted effect of over 80% in size
- Condition summary: cell viability, alamar blue fluorescence (LASV minigenome counter-screen); series mostly up to 57.5 µM
Inconclusive results are not listed. The source made the active and inactive calls. Calls follow the shape of the full dose curve; tested in HEK293 reporter line.
Possible outcomes: 1 = active, -1 = inactive

| Compound | Answer label |
| --- | --- |
| CCCCCCOC(=O)N=C(N)c1ccc(NCc2nc3cc(C(=O)N(CCC(=O)OCC)c4ccccn4)ccc3n2C)cc1 | -1 |
| CC[C@H]1O[C@]2(CC[C@@H]1C)C[C@@H]1C[C@@H](C/C=C(\C)C[C@@H](C)/C=C/C=C3\CO[C@@H]4[C@H](O)C(C)=C[C@@H](C(=O)O1)[C@]34O)O2 | -1 |
| CN1C(=O)[C@@H]2C[C@@]3([C@@]45C[C@H]6C(=O)N(C)[C@@H](Cc7ccccc7)C(=O)N6[C@@H]4Nc4ccccc45)c4ccccc4N[C@H]3N2C(=O)[C@@H]1Cc1ccccc1 | -1 |
| C#CCCC/C(=C\C(=O)N(C)[C@H](C(=O)N(C)[C@H](C(=O)N(C)[C@H](C(=O)N(C)[C@H](C(N)=O)C(C)C)C(C)C)C(C)C)C(C)C)OC | -1 |
| O=c1c(-c2ccc(O)cc2)coc2c(C3OC(CO)C(O)C(O)C3O)c(O)ccc12 (configuration not stated) | -1 |
| CCCCC/C=C\C=C\C(=O)OCC | -1 |
| O=C1CCCC2[C@@H]3CCC[N@+]4([O-])CCC[C@H](CN12)C34 (some centres not stated) | -1 |
| C[C@@H]1C(=O)O[C@H]2[C@H]1CC[C@@]1(C)C(=O)C=C[C@@](C)(O)[C@H]21 | -1 |
| COc1ccc(CCC(=O)O)cc1 | -1 |
| NC1CCN(O)C1=O (configuration not stated) | -1 |
| CN1CCc2cc3c(cc2C1)OCO3 | -1 |
| OC[C@H]1NC[C@@H](O)[C@@H]1O | -1 |
| Cc1cc(O)c2c(c1)C(=O)c1cccc(O)c1C2=O | -1 |
| C/C=C(\C)C(=O)O[C@H]1CC(C)=C2C(=O)C=C(C)C2[C@@H]2OC(=O)[C@@](C)(OC(=O)C=C(C)C)C21 (some centres not stated) | -1 |
| CCCCCCCCCCCCCCCCCC(=O)OC(CC(=O)O)C[N+](C)(C)C (configuration not stated) | -1 |
| CCOc1ccccc1OCCNC(C)Cc1ccc(OC)c(S(N)(=O)=O)c1 (configuration not stated) | -1 |
| CC(C)=CCC/C(C)=C/Cc1c(O)ccc(C(=O)/C=C/c2ccc(O)cc2)c1O | -1 |
| CCCCN(CCCC)CC(O)c1cc(Cl)cc2c1-c1ccc(Cl)cc1C2=Cc1ccc(Cl)cc1 (configuration not stated) | -1 |
| OC1O[C@H](c2ccc3c(c2)OCO3)[C@H]2CO[C@H](c3ccc4c(c3)OCO4)[C@@H]12 (some centres not stated) | -1 |
| COc1cc2c(cc1O)C(Cc1ccc(O)cc1)NCC2 (configuration not stated) | -1 |
| NC1C=CC=C(C(=O)O)C1 (configuration not stated) | -1 |
| Cc1cnc(Nc2ccc(N3CCN(C)CC3)cc2)nc1Nc1cccc(S(=O)(=O)NC(C)(C)C)c1 | 1 |
